Experiment: amyloid nucleation score (Sup35N fusion, yeast selection) (log enrichment); library NNK1; higher = more nucleation; inactive = no reads after selection;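 note: zero at mode of non-aggregating sequences after 7 days selection at 30°C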
The threshold is inclusive: amyloid nucleation score of exactly 0.9 counts as 1; values below receive 0.

{"columns": ["Seq string", "Class assignment"],
 "data": [
  ["LHCYFAFDLLWIALRTTVRI", 0],
  ["WNSSYDGRFIAYAMQWSNKE", 0],
  ["RIWLTFTSFIYDNVDRILVQ", 0],
  ["HLKGHFEGWGLIICVSSGFD", 1],
  ["EWVALRCLDMEGAVAPLALV", 1],
  ["YDYHRNLSNHFLCFTLNWLT", 1],
  ["QKLVDLTIRWGYRPLGRCWW", 0]
]}

###

In this section we review reported amyloid nucleation score values for a set of sequences.
Assay: amyloid nucleation score (Sup35N fusion, yeast selection) (log enrichment); library NNK2; higher = more nucleation; inactive = no reads after selection

{"columns": ["Seq string", "amyloid nucleation score"],
 "data": [
  ["VKIYVFSFFMEL", 3.7],
  ["VWRSLMCFSWNPTMHRLISV", 0.363],
  ["DHCMMLRFN", 0.716],
  ["VKFVLQVYYGVPST", 0.307],
  ["ISVHSQNTYVILELVRPSML", 8.39],
  ["AVNSNDTRDGRCGVIAI", 0.057],
  ["NTLSPFQIEFGGWLMGVLFK", 0.611],
  ["NTNAHVRMVDLVSGCASQWL", 1.75],
  ["NERFFKILCWLFRRNSFTIE", -2.24],
  ["GHIFSRHVKGQLHGWEEDGP", 0.058],
  ["KPNFIRLYRIKFNKLGLGIT", -0.855],
  ["GLRRVKFYIKVIFAKSSLVI", -1.84],
  ["RYINWLQYECNTLCAVDKSL", -0.436],
  ["LISTELGPTSFYLHKSLSSR", -1.02],
  ["SLSQMRLSVLSNKDHSIEL", 7.96]
]}

###

Assay: amyloid nucleation score (Sup35N fusion, yeast selection) (log enrichment); library NNK2; higher = more nucleation; inactive = no reads after selection
In this section we review reported amyloid nucleation score values for a set of substances.

{"columns": ["Substance", "amyloid nucleation score"],
 "data": [
  ["GNMYLSEVNVTC", -0.78],
  ["NQQPKSLLYVSRRMQGTMIF", 0.089],
  ["RLFYRYWCL", -0.797],
  ["RFCHTSRGSGGLGRLCQLAL", 0.157],
  ["LCWCWKSWHNARRWTSWRMF", 0.13],
  ["FCRGIHVTSIITTIDWYYSL", 0.36],
  ["SCSANCRISLDSSRVVVPYY", 0.571],
  ["LGPEYTWQI", 0.548],
  ["SLGEKRFACLATSCCADDCT", 0.508],
  ["SSGFPE", -0.846],
  ["KSIVNL", 0.465],
  ["IKISYTLMASEAVNTFS", -1.22],
  ["YKFSPIHNSRCLNSLHWPKA", 0.439],
  ["GRKCVTYSCPF", 0.185],
  ["PRVRSAVQSLRGVKYCLGRR", -0.531],
  ["RWLRPRSFWMDVVGSKI", 1.83],
  ["VDCGFYSSIVAFYRYVHVPW", -0.026]
]}

Values were extracted from the supplement of paper PMC12042874.
